# Procedure Summary: Plasma level and tissue penetration after oral dosing
# Type: in vivo, mice
# Experimental Setup: mouse, plasma, oral; 4 weeks 100 mg/kg orally, enzymatic method; read-out: plasma levels
Observed Property: concentration at 4 weeks

Recorded concentration at 4 weeks (compound OC[C@@H]1[C@@H](O)[C@H](O)[C@@H](O)CN1CCCCCOCC12CC3CC(CC(C3)C1)C2 [AMP-DNM] ): ~1000 nM

###

Provide the recorded pIC50 for the entries that follow.
# Target Desc: sucrase (Rattus norvegicus)
# Construct: Membrane homogenates were prepared by extensive washing and homogenization; from tissue; host or cells: rat intestinal membrane homogenate
# Procedure Summary: In vitro sucrase activity, intestinal membrane preparation
# Format: biochemical
# Experimental Setup: rat intestinal membranes; read-out: IC50 value for inhibition of Sucrase
Answer as the number alone; pIC50 is minus log10 of concentration in mol/L.

Recorded pIC50 (compound OCCN1C[C@H](O)[C@@H](O)[C@H](O)[C@H]1CO [N-hydroxyethyl-deoxynojirimycin] ): 4.00

Recorded pIC50 (compound CCCCN1C[C@H](O)[C@@H](O)[C@H](O)[C@H]1CO ): 3.30

###

# Target Desc: sucrase (Rattus norvegicus, UniProt P23739)
# Construct: Membrane homogenates were prepared by extensive washing and homogenization; from tissue; host or cells: rat intestinal membrane homogenate
# Sequence (P23739 1014-1841 limits assumed): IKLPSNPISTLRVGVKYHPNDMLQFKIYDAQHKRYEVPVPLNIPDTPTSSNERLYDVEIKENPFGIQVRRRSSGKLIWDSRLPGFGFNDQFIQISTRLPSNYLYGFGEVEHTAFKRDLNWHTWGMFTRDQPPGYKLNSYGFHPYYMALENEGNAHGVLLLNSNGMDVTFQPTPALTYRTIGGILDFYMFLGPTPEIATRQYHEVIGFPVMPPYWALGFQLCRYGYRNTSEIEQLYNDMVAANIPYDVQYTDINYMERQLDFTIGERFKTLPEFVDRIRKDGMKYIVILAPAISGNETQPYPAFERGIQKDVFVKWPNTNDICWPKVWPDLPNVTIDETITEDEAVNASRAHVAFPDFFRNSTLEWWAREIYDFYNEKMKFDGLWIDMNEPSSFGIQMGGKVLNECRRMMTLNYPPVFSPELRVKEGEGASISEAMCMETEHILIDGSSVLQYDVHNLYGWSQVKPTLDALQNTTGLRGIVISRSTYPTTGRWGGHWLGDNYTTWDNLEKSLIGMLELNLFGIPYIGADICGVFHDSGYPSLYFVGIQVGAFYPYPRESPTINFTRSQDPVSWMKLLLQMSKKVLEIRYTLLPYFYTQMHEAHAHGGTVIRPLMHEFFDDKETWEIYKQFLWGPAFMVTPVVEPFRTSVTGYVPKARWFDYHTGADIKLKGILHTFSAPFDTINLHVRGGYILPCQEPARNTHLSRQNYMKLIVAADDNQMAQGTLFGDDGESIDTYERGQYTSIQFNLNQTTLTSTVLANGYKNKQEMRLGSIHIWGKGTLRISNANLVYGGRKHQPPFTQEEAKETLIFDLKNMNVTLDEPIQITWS
# Sequence (P23739 1-1013 partner limits assumed): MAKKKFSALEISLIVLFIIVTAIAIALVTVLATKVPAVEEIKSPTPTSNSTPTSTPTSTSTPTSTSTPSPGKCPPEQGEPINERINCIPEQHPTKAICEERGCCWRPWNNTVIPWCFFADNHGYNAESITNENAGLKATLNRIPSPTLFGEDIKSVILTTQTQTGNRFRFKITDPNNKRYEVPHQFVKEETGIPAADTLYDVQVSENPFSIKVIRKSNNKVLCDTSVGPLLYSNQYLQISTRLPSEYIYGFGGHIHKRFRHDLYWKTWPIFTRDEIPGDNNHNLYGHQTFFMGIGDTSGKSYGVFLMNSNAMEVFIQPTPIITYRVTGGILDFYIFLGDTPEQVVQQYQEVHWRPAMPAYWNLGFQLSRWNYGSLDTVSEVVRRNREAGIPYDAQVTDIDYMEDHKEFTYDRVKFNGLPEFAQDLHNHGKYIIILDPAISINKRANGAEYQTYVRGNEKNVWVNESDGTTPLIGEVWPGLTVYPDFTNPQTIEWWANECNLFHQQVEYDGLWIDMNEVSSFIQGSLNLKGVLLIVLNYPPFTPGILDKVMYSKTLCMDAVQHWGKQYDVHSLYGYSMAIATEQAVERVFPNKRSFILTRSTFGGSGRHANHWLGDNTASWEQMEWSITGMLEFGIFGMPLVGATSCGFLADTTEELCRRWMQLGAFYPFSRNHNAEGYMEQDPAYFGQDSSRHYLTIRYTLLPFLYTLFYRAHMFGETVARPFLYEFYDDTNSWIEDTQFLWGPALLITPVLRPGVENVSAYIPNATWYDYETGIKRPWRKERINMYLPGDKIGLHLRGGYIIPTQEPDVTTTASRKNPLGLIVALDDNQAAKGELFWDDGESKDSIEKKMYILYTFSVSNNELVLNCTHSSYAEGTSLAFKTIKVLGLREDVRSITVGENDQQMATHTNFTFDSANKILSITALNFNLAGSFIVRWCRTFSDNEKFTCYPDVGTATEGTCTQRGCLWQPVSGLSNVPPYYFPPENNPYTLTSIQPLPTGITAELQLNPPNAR
# Procedure Summary: In vitro sucrase activity, intestinal membrane preparation
# Type: biochemical
# Experimental Setup: intestinal sucrase; read-out: IC50 value for sucrase
Observed Property: IC50 (mM)
Give the number; mM is assumed, so skip it.

Recorded IC50 (compound OC[C@@H]1[C@@H](O)[C@H](O)[C@@H](O)CN1CCCCCOCC12CC3CC(CC(C3)C1)C2 ): 4.5

###

# Target Desc: debranching enzyme (Homo sapiens)
# Construct: As enzyme source erythrocytes are used since they contain no other enzymes that can degrade glycogen or limit dextrin
# Sequence (P35573 whole entry): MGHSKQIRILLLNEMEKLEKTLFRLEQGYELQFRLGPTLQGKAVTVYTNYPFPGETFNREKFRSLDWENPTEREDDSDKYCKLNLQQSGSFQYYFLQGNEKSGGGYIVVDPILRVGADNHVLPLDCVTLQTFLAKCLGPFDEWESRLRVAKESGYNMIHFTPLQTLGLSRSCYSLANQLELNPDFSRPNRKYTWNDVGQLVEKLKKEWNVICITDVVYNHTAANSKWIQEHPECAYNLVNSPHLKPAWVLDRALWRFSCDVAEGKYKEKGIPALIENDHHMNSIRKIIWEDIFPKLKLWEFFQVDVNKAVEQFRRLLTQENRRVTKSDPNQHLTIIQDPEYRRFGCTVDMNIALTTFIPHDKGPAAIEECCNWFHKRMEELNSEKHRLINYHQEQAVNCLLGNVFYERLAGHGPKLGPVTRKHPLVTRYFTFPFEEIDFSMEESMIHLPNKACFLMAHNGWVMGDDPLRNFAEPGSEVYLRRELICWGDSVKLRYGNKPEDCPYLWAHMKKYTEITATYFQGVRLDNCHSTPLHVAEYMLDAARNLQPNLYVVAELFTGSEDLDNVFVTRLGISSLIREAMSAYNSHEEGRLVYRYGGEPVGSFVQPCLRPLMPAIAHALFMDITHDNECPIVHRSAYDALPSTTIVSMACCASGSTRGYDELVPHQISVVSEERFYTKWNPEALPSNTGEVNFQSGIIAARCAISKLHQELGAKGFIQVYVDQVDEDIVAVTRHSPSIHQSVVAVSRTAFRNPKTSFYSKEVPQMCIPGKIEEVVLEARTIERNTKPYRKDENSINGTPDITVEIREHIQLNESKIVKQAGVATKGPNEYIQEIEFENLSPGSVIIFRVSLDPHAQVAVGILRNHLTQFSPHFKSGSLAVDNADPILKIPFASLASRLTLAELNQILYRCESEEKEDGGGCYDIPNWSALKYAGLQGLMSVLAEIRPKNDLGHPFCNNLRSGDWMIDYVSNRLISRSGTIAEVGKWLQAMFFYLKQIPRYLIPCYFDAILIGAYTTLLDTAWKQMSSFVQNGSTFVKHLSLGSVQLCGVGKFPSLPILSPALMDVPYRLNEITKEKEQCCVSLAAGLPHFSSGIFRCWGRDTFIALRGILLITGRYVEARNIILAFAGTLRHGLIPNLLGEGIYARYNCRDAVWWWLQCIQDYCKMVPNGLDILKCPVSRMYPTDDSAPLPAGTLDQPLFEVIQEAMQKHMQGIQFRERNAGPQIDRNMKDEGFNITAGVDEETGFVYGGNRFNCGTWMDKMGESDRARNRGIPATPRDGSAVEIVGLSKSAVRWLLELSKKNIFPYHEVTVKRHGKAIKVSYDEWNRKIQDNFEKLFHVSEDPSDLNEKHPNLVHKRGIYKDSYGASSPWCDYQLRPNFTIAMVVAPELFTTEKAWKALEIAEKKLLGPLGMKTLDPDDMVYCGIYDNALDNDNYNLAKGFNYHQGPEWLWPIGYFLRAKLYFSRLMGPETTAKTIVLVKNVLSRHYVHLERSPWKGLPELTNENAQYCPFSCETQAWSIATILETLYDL
# Procedure Summary: Debranching enzyme activity, glucose release from limit dextrin, erythrocyte homogenate
# Experimental Setup: read-out: IC50 value for inhibition of Debranching enzyme
pIC50: −log10 of the molar value.
Observed Property: pIC50

I looked up OC[C@@H]1[C@@H](O)[C@H](O)[C@@H](O)CN1CCCCCOCC12CC3CC(CC(C3)C1)C2 [AMP-DNM] and its pIC50 for debranching enzyme (Homo sapiens) was < 3.30
